FYI, the data here is from patent US20180148418A1.

- target: TNKS1 (Homo sapiens, UniProt O95271)
- Sequence (O95271 1-1327): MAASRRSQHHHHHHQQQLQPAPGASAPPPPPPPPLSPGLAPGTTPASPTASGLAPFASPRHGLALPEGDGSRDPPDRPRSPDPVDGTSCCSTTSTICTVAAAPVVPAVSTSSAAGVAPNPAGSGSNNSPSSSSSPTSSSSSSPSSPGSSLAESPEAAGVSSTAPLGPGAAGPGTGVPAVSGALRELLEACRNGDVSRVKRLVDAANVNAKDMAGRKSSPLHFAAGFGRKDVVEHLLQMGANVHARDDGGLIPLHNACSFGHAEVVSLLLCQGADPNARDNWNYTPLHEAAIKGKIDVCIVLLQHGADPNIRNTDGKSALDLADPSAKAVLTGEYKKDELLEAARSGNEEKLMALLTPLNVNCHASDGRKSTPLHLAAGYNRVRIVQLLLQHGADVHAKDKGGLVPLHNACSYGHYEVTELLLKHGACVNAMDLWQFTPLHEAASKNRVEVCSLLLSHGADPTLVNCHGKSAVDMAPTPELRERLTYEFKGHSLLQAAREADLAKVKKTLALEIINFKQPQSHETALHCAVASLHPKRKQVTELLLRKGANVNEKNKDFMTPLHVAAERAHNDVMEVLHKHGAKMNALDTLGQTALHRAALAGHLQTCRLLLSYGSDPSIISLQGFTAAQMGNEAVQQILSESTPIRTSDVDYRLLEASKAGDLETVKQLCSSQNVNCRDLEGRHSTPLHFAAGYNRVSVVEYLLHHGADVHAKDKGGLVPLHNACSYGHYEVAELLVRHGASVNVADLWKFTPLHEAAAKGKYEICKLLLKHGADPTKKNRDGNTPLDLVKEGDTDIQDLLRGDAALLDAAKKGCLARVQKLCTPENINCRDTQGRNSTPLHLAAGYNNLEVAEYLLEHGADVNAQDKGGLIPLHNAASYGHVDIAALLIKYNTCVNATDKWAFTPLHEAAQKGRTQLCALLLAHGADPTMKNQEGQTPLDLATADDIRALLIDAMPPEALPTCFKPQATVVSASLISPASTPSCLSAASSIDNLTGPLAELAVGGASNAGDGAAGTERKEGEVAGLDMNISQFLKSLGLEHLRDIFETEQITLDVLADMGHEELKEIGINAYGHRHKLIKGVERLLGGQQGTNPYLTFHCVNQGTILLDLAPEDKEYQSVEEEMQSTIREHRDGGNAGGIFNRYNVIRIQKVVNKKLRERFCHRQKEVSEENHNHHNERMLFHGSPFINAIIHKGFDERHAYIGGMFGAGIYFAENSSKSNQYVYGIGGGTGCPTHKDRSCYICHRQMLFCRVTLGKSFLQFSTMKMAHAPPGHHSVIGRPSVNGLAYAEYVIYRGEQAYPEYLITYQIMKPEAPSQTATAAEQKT
# key: entry, value: IC50
Hi! Could you send only the number? It should be in nM, unit omitted.

Here are 4 compounds together with their reported answers.
IN: Indicate its recorded IC50; the compound in question is CNC(=O)c1nc[nH]c1C(=O)N[C@H]1CC[C@H](C(=O)Nc2cc(C(C)(C)O)ccc2Cl)CC1
OUT: 2400

IN: Indicate its recorded IC50; the compound in question is CNC(=O)c1nc[nH]c1C(=O)N[C@H]1CC[C@H](C(=O)N(C)c2ccc(F)cc2Cl)CC1
OUT: 200

IN: Indicate its recorded IC50; the compound in question is COC(C)(C)CNC(=O)c1nc[nH]c1C(=O)N[C@H]1CC[C@H](C(=O)Nc2cc(N3CCOCC3)ccc2Cl)CC1
OUT: 3100

IN: Indicate its recorded IC50; the compound in question is COCC(C)NC(=O)c1nc[nH]c1C(=O)N[C@H]1CC[C@@]2(CCN(c3cccc(Cl)c3)C2=O)CC1 (stereo partly shown)
OUT: 630

Others:
IN: Indicate its recorded IC50; the compound in question is CN1CC2(CCN(C(=O)c3nc[nH]c3C(=O)N[C@H]3CC[C@@]4(CCN(c5ccc(F)cc5Cl)C4=O)CC3)C2)C1
OUT: 10

IN: Indicate its recorded IC50; the compound in question is CNC(=O)c1nc[nH]c1C(=O)N[C@H]1CC[C@H](C(=O)N(C)c2ccc(F)cc2)CC1
OUT: 980
